These entries and their values trace back to the RepoRT retention time repository (doi:10.1016/j.foodchem.2021.129757).

assay: RP, Phenomenex Synergi Hydro-RP, 250 × 2 mm, 4 µm, 25 °C, 0.2 mL/min, estimated dead time 2.5 min; A: water + 0.1% formic acid, pH 3; B: acetonitrile + 0.1% formic acid, pH 3; gradient (min/%B) 0/0.5 7/0.5 12/12.5 25/16.3 47/35 48/65 50/65 50.1/0.5; conditions: stereoisomer not certain
value type: LC retention time (min)

1: O=C(C=Cc1ccc(O)c(O)c1)OC1CC(O)(C(=O)O)CC(O)C1O (configuration not stated) [Chlorogenic acid]
2: COc1cc(-c2oc3cc(O)cc(O)c3c(=O)c2OC2OC(CO)C(O)C(O)C2O)ccc1O (configuration not stated) [Isorhamnetin-3-O-glucoside]
3: O=C(O)C1(O)CC(O)C(O)C(O)C1 (configuration not stated) [Quinic acid]
Enquiry: Highest to lowest LC retention time: rank the entries shown above. Answer by naming the labels in the order asked.
Return: 2, 1, 3
(2: 38.7 min, 1: 20 min, 3: 3.21 min)

----------
test: RP, Agilent ZORBAX Eclipse XDB-C18, 100 × 2.1 mm, 1.8 µm, 50 °C, 0.4 mL/min, estimated dead time 0.55 min; A: water + 0.1% formic acid, pH 3; B: methanol + 0.1% formic acid, pH 3; gradient (min/%B) 0/2 10/100 14.5/100 14.51/2 16.5/2; settings: stereoisomer not certain
value type: LC retention time (min)

Example cases with answers are listed next.
compound=O=C(O)CNC(=O)C=Cc1ccccc1 value_type="LC retention time" recorded_measurement=4.75
compound=Oc1ccc(C=Cc2cc(O)cc(O)c2)cc1 value_type="LC retention time" recorded_measurement=5.24
compound=O=C(O)CCc1ccc(O)cc1 value_type="LC retention time" recorded_measurement=4.09

I: COc1cc(C(=O)O)ccc1O
II: O=C(O)Cc1cc(O)ccc1O
Enquiry: Problem: Given the entries I and II , determine which has the lower reported LC retention time. Reply briefly: the label of your chosen item.
Return: II

a: Nc1nc2ncc(CNc3ccc(C(=O)NC(CCC(=O)O)C(=O)O)cc3)nc2c(=O)[nH]1 (stereo unspecified)
b: COc1c(O)cc(C(=O)O)cc1OS(=O)(=O)O [4-O-methylgallic acid 3-O-sulfate]
c: CCC=CCC1C(=O)CCC1CC(=O)OC (stereo unspecified) [Methyl jasmonate]
Enquiry: Could you please order the items by LC retention time, going from the lowest number to the highest? Answer by naming the labels in the order asked.
Return: b, a, c

I: O=C(O)CCCCC(=O)O
II: CC12CCc3occc3C1CCC13CC(CCC12)C(O)(CO)C3 (stereo unspecified)
Enquiry: Could you point out whether the larger LC retention time belongs to I or to II ? Reply briefly: the label of your chosen item.
Return: II
(II: 9.33 min, I: 2.63 min)

1: Oc1cc(O)c2c(c1)OC(c1ccc(O)c(O)c1)C(O)C2 (single isomer, unassigned; (-)) [(-)-Epicatechin]
2: COc1ccc(C2CC(=O)c3c(O)cc(O)cc3O2)cc1O (stereo unspecified)
Enquiry: Could you point out whether the larger LC retention time belongs to 1 or to 2 ? Reply briefly: the label of your chosen item.
Return: 2
(2: 6.64 min, 1: 3.7 min)

a: O=C(O)c1cc(O)ccc1O
b: Cc1cc2nc3c(=O)[nH]c(=O)nc-3n(CC(O)C(O)C(O)CO)c2cc1C (stereo unspecified)
c: O=c1oc2cc(O)ccc2c2ccccc12
Enquiry: Task field, ranking: reported LC retention time, descending order. Answer by naming the labels in the order asked.
Return: c, b, a
(c: 7.19 min, b: 4.17 min, a: 2.85 min)
